- Tested on: Bacillus subtilis spores
- assay overview: Assay of antibacterial activity (growth inhibition, absorbance at 690 nm) against Bacillus subtilis spores
- Type: cell-based
- assay setup: spores 1×10^7/ml, nutrient broth pH 7.0, cultured overnight at 37° C., percent growth inhibition from absorbance at 690 nm
- Experimental: Into each well, 50 μl of a nutrient broth (pH 7.0, NISSUI PHARMACEUTICAL CO., LTD.) was added and cultured overnight at 37° C. The light absorbance at 690 nm was measured both at the start and end of the culture by means of a micro-plate reader (Thermolab Systems, Finland). […]

{"compound": "CCCCCCCC(=O)Oc1cc(O)c2c(c1)O[C@H](c1ccc(O)c(O)c1)[C@@H](OC(=O)CCCCCCC)C2 [3,7-di-O-octanoyl-(+)-D-catechin]", "system name": "Bacillus subtilis spores", "IC50 (ppm) B. subtilis": "25-50 ppm"}
{"compound": "CCCCCCCC(=O)Oc1ccc([C@H]2Oc3cc(O)cc(O)c3C[C@@H]2O)cc1OC(=O)CCCCCCC [3′4′-O-dioctanoyl-(+)-D-catechin]", "system name": "Bacillus subtilis spores", "IC50 (ppm) B. subtilis": ">400 ppm"}
{"compound": "CCCCCCCC(=O)Oc1cc(OC(=O)CCCCCCC)c2c(c1)O[C@H](c1ccc(O)c(O)c1)[C@@H](O)C2 [5,7-di-O-octanoyl-(+)-D-catechin]", "system name": "Bacillus subtilis spores", "IC50 (ppm) B. subtilis": ">400 ppm"}
{"compound": "CCCCCCCC(=O)Oc1cc(O)cc2c1C[C@H](OC(=O)CCCCCCC)[C@@H](c1ccc(O)c(O)c1)O2 [3,5-di-O-octanoyl-(+)-D-catechin]", "system name": "Bacillus subtilis spores", "IC50 (ppm) B. subtilis": "100-200 ppm"}

Where do these numbers come from? They come from patent US20080058409A1.
